Molecular target: human orexin-1 receptor (Homo sapiens, UniProt O43613)
Sequence (O43613 whole entry): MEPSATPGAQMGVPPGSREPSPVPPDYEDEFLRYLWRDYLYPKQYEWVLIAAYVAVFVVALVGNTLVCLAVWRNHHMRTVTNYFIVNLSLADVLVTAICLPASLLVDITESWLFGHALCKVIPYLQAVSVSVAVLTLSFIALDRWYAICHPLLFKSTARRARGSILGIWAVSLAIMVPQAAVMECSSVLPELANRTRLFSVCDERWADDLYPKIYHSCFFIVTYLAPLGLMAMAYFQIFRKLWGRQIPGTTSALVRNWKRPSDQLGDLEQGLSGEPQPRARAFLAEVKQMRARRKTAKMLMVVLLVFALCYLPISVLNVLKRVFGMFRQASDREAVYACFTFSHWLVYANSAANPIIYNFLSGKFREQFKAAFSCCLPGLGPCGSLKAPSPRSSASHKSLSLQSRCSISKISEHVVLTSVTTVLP
Test: FLIPR intracellular calcium assay, orexin receptor antagonistic activity (OX1)
Conditions: CHO cells expressing human orexin-1 receptor; 3 nM orexin-A; normalized to on-plate reference; *n = geometric mean from n values
Field: log10 IC50. Provide a value for each of the compounds that follow.
On a log10 scale: recorded IC50, unit nM.

Reference set, count: 4
CCOc1ccc(CN2C(=O)C(C)SC2c2c(OC)cccc2OC)cc1 (centres unmarked) [Example 13] | 2.39
COc1cccc(OC)c1C1SCC(=O)N1Cc1ccc(OC(F)F)cc1 (centres unmarked) [Example 4] | 2.58
CCOc1ccc(CN2C(=O)CSC2c2c(OC)ccc3nc(C)oc23)cc1 (centres unmarked) [Example 20] | 3.19
COc1ccc2cc(CN3C(=O)CSC3c3c(OC)cccc3OC)ccc2c1 (centres unmarked) [Example 32] | 1.18

Please give log10 IC50 for each item listed below.
1. COc1cccc(OC)c1C1SC(C)C(=O)N1Cc1ccc2ccccc2c1 (centres unmarked) [Example 14]
2. CCOc1ccc(CN2C(=O)C(C)(C)SC2c2c(OC)cccc2OC)cc1 (centres unmarked) [Example 175]
3. COc1ccc2nc(C)oc2c1C1SCC(=O)N1Cc1ccc(OC(F)(F)F)cc1 (centres unmarked) [Example 23]
4. COc1cccc(OC)c1C1SCC(=O)N1Cc1ccc(OCC(F)(F)F)cc1 (centres unmarked) [Example 18]
5. CCOc1ccc(CN2C(=O)CSC2c2c(OC)cccc2OCC)cc1 (centres unmarked) [Example 15]
6. COc1ccc2cccnc2c1C1SCC(=O)N1Cc1ccc(OC(F)(F)F)cc1 (centres unmarked) [Example 24]
7. CCOc1ccccc1C1SCCC(=O)N1Cc1ccccc1OC(F)F (centres unmarked) [Example 40]

Reply:
[1.49, 1.93, 2.31, 2.51, 2.93, 2.44, 3.12]

====

Biological target: human orexin-1 receptor (Homo sapiens, UniProt O43613)
Test: FLIPR intracellular calcium assay, orexin receptor antagonistic activity (OX1)
Details: CHO cells expressing human orexin-1 receptor; 3 nM orexin-A; normalized to on-plate reference; *n = geometric mean from n values
reported-endpoint: IC50 (µM)
One number for each entry, in µM.

COc1ccc2c(C)noc2c1C1SCC(=O)N1Cc1ccc(OC(F)(F)F)cc1 (centres unmarked) | 2.36
COc1cccc(OC)c1C1SCC(=O)N1Cc1ccc2ccccc2c1 (centres unmarked) | 0.083
COc1cccc(OC)c1C1SCC(=O)N1Cc1ccc(OC(C)(C)C)cc1 (centres unmarked) | 1.42
COc1cccc(OC)c1C1SCC(=O)N1Cc1ccc(Oc2ccc(C)cn2)cc1 (centres unmarked) | 0.781
COc1cccc(OC)c1C1SCC(=O)N1Cc1ccc(Oc2cccnc2)cc1 (centres unmarked) | 1.03
COc1cccc(OC)c1C1SC(C)C(=O)N1Cc1ccc(OC(F)(F)F)cc1 (centres unmarked) | 0.363
COc1cccc(OC)c1C1SCC(=O)N1Cc1ccc(Oc2ccc(C)nn2)cc1 (centres unmarked) | 1.74

Ask: Name the recorded IC50 for CCOc1ccccc1C1SCC(=O)N1Cc1ccc(F)c(F)c1 (centres unmarked) .
Reply: 1.43

====

Target: human orexin-1 receptor (Homo sapiens, UniProt O43613)
Assay: FLIPR intracellular calcium assay, orexin receptor antagonistic activity (OX1)
Settings: CHO cells expressing human orexin-1 receptor; 3 nM orexin-A; normalized to on-plate reference; *n = geometric mean from n values
Field: IC50. Provide a value for each of the compounds that follow.
Answers are plain numbers, in nM.

Reference set, count: 2
COc1ccc(Oc2ccc(CN3C(=O)CSC3c3c(OC)cccc3OC)cc2)nc1 (stereo not drawn) [Example 286] | 553
COc1cccc(OC)c1C1SCC(=O)N1Cc1ccc(OC(C)C)cc1 (stereo not drawn) [Example 5] | 169

Please give IC50 for each item listed below.
1. COc1cccc(OC)c1C1SC(C)C(=O)N1Cc1ccc2ccccc2n1 (stereo not drawn) [Example 30]
2. COc1cccc(OC)c1C1N(Cc2ccc(OC(C)C)cc2)C(=O)CS1(=O)=O (stereo not drawn) [Example 289]
3. COc1cc(C2SC(C)C(=O)N2Cc2nc3ccccc3[nH]2)ccc1OCc1ccccc1 (stereo not drawn) [Example 265]
4. COc1cccc(OC)c1C1SCC(=O)N1Cc1ccc(Oc2cnccn2)cc1 (stereo not drawn) [Example 279]
5. COc1cc(F)cc(OC)c1C1SC(C)C(=O)N1Cc1ccc(OC(F)(F)F)cc1 (stereo not drawn) [Example 36]

Reply:
356
181
2630
1420
171

====

Target: UniProt:O43614
Experiment: FLIPR intracellular calcium assay, orexin receptor antagonistic activity (OX2)
Conditions: CHO cells expressing human orexin-2 receptor; 3 nM orexin-A; normalized to on-plate reference; *n = geometric mean from n values
Field: pIC50. Provide a value for each of the compounds that follow.
Give bare numbers, as −log10 of the molar value.

Reference set, count: 5
COc1cccc(Oc2ccc(CN3C(=O)CSC3c3c(OC)cccc3OC)cc2)n1 (stereo not drawn) [Example 282] | 6.90
COc1cccc(OC)c1C1SCC(=O)N1Cc1ccc(OCC(F)(F)F)cc1 (stereo not drawn) [Example 18] | 8.00
COc1cc(C)cc(OC)c1C1SC(C)C(=O)N1Cc1ccc(OC(F)(F)F)cc1 (stereo not drawn) [Example 35] | 6.89
CCOc1ccc(CN2C(=O)CSC2c2c(OC)ccc3c(C)noc23)cc1 (stereo not drawn) [Example 19] | 6.82
COc1cccc(OC)c1C1SCC(=O)N1Cc1ccc(OC(F)F)cc1 (stereo not drawn) [Example 4] | 7.57

Please give pIC50 for each item listed below.
1. COc1ccnc(OC)c1C1SCC(=O)N1Cc1ccc(OC(F)(F)F)cc1 (stereo not drawn) [Example 25]
2. COc1cccc(OC)c1C1SC(C)C(=O)N1Cc1ccc2ccccc2c1 (stereo not drawn) [Example 14]
3. COc1ccc(Oc2ccc(CN3C(=O)CSC3c3c(OC)cccc3OC)cc2)nc1 (stereo not drawn) [Example 286]
4. CCOc1ccccc1C1SCCC(=O)N1Cc1c(OC)cccc1OC (stereo not drawn) [Example 43]
5. CCOc1ccc(CN2C(=O)C(C)SC2c2c(OC)cccc2OC)cc1 (stereo not drawn) [Example 13]
6. COc1cc(C2SC(C)C(=O)N2Cc2nc3ccccc3[nH]2)ccc1OCc1ccccc1 (stereo not drawn) [Example 265]
7. COc1cccc(OC)c1C1N(Cc2ccc(OC(C)C)cc2)C(=O)CS1(=O)=O (stereo not drawn) [Example 289]

Reply:
7.80
7.36
7.28
7.15
7.37
6.27
7.80

====

Biological target: human orexin-1 receptor (Homo sapiens)
Assay: FLIPR intracellular calcium assay, orexin receptor antagonistic activity (OX1)
Conditions: CHO cells expressing human orexin-1 receptor; 3 nM orexin-A; normalized to on-plate reference; *n = geometric mean from n values
Field: pIC50. Provide a value for each of the compounds that follow.
Numbers only, as −log10 of the molar value.

Reference set, count: 3
CCOc1ccc(CN2C(=O)CSC2c2c(OC)cccc2OC)cc1 (centres unmarked) | 6.85
CCOc1ccccc1C1SCCC(=O)N1Cc1c(OC)cccc1OC (centres unmarked) | 6.10
COc1ccc2c(c1C1SCC(=O)N1Cc1ccc(OC(F)(F)F)cc1)OCCO2 (centres unmarked) | 6.84

Please give pIC50 for each item listed below.
1. COc1ccc2cc(CN3C(=O)C(C)SC3c3c(OC)cccc3OC)ccc2c1 (centres unmarked)
2. COc1cccc(OC)c1C1SCC(=O)N1Cc1ccc(Oc2cccc(C)n2)cc1 (centres unmarked)
3. COc1cncc(OC)c1C1SCC(=O)N1Cc1ccc(OC(F)(F)F)cc1 (centres unmarked)
4. COc1ccc2c(c1C1SCC(=O)N1Cc1ccc(OC(F)(F)F)cc1)OCO2 (centres unmarked)

Reply:
1. 7.96
2. 6.03
3. 6.68
4. 6.51

Ask: Name the recorded pIC50 for COc1cccc(OC)c1C1SCC(=O)N1Cc1ccc(Oc2ccccc2)cc1 (centres unmarked) .
Reply: 6.61

====

Target: human orexin-2 receptor (Homo sapiens, UniProt O43614)
Sequence (O43614 1-444): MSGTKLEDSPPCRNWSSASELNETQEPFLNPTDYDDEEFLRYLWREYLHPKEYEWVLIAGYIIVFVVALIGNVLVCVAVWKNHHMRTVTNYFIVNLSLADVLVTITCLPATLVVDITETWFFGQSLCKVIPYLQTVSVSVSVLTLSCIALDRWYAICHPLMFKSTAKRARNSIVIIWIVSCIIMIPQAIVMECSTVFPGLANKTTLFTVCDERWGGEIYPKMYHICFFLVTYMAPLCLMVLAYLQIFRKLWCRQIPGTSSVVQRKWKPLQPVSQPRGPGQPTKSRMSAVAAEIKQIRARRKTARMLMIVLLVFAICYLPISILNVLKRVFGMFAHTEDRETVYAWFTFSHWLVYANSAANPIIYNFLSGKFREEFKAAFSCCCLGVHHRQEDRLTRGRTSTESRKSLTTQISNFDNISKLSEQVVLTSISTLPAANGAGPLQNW
Assay: FLIPR intracellular calcium assay, orexin receptor antagonistic activity (OX2)
Settings: CHO cells expressing human orexin-2 receptor; 3 nM orexin-A; normalized to on-plate reference; *n = geometric mean from n values
Reported IC50 maps to class as: group 1 (below 0.02 µM), group 2 (0.02 µM to below 0.06 µM), group 3 (0.06 µM or more)

# count of solved cases: 5
CCOc1ccc(CN2C(=O)CS(=O)(=O)C2c2c(OC)cccc2OC)cc1 (stereo not drawn) | group 2
CCOc1ccc(CN2C(=O)CSC2c2c(OC)cncc2OC)cc1 (stereo not drawn) | group 2
CCOc1ccc(CN2C(=O)CSC2c2c(OC)ccnc2OC)cc1 (stereo not drawn) | group 3
COc1cccc(OC)c1C1SCC(=O)N1Cc1ccc2ccccc2c1 (stereo not drawn) | group 2
CCOc1ccccc1C1SCC(=O)N1Cc1ccc2c(c1)OCCO2 (stereo not drawn) | group 3

Ask: State the class of the compound shown: COc1cccc(OC)c1C1SCC(=O)N1Cc1ccc(Oc2ccccc2)cc1 (stereo not drawn)
Reply: group 1

Ask: And then COc1cc(C)cc(OC)c1C1SCC(=O)N1Cc1ccc(OC(F)(F)F)cc1 (stereo not drawn) , what is it?
Reply: group 2

Ask: And then CCOc1ccc(CN2C(=O)CSC2c2c(OC)cccc2OCC)cc1 (stereo not drawn) , what is it?
Reply: group 2

Ask: And then COc1ccc2c(C)noc2c1C1SCC(=O)N1Cc1ccc(OC(F)(F)F)cc1 (stereo not drawn) , what is it?
Reply: group 1

Ask: And then COc1cccc(OC)c1C1SC(C)C(=O)N1Cc1ccc2ccccc2n1 (stereo not drawn) , what is it?
Reply: group 3

Ask: And then COc1cccc(OC)c1C1SC(C)C(=O)N1Cc1ccc(OC(F)(F)F)cc1 (stereo not drawn) , what is it?
Reply: group 1
